Test system: U2OS
METHOD SUMMARY: Growth inhibition of human U2OS cells at 2.5 uM after 72 hrs by SRB assay relative to control
Assay type: functional
EXPERIMENTAL CONDITIONS: read-out: GI
inhibition of growth at 2.5 µM values by entry

Lookup: Look up and report measured inhibition of growth at 2.5 µM for this entry: "Cc1ccc(C(=O)Nc2ccc3c(S(=O)(=O)O)cccc3c2S(=O)(=O)O)cc1NC(=O)c1cc(NC(=O)Nc2cc(C(=O)Nc3cc(C(=O)Nc4ccc5c(S(=O)(=O)O)cccc5c4S(=O)(=O)O)ccc3C)n(C)c2)cn1C"
Found: < 50%

Lookup: Please give measured inhibition of growth at 2.5 µM of the following entry: "Cn1cc(NC(=O)Nc2cc(C(=O)Nc3cccc(C(=O)Nc4ccc5c(S(=O)(=O)[O-])cccc5c4S(=O)(=O)[O-])c3)n(C)c2)cc1C(=O)Nc1cccc(C(=O)Nc2ccc3c(S(=O)(=O)[O-])cccc3c2S(=O)(=O)[O-])c1.[Na+].[Na+].[Na+].[Na+]"
Found: < 50%

---
Lookup: Identify inhibition of growth at 2.5 µM associated with the compound "Cn1cc(NC(=O)c2ccc(F)c(NC(=O)Nc3cc(C(=O)Nc4cc(C(=O)Nc5ccc6c(S(=O)(=O)O)cccc6c5S(=O)(=O)O)n(C)c4)ccc3F)c2)cc1C(=O)Nc1ccc2c(S(=O)(=O)O)cccc2c1S(=O)(=O)O"
Found: < 50%
